system: redroot pigweed (Amaranthus retroflexus, AMARE); test: Pre-emerge test, greenhouse herbicide activity screening; type: in vivo; details: Amaranthus retroflexus, pre-emergence, 336 h; pre-emerge, rate 63 g ai/ha, phytotoxicity rating 0-100 at 14 days after application; read-out: Pre-emerge Herbicidal Activity AMARE
readout-kind: pest or weed control at 63 g/ha (%)

smiles-entry	assay-result
Cc1nn(-c2c(Cl)cc(Cl)cc2NC(=O)c2ccc3ccccc3c2)c(=O)n1C(F)F	30
COc1c(Cl)cc(Cl)c(-n2nc(C)n(C(F)F)c2=O)c1NC(=O)c1ccc2ccccc2c1	90
COc1c(Cl)cc(F)c(-n2nc(C)n(C(F)F)c2=O)c1NC(=O)c1ccc2ccccc2c1	100
COc1c(Cl)cc(F)c(-c2nn(C)c(C(F)(F)F)c2Cl)c1NC(=O)c1ccc2ccccc2c1	40

###

Tested on: lambsquarters (Chenopodium album, CHEAL)
Assay: Pre-emerge test, greenhouse herbicide activity screening
Format: in vivo
Details: 250 g ai/ha; pre-emerge; rated 14 days after application; 0 = no damage, 100 = complete death
Experimental: A standard greenhouse herbicide activity screening system was used to evaluate the herbicidal efficacy and crop safety of these test compounds. […] At 14 days after application of the test materials, phytotoxicity ratings were recorded. […]
readout-kind: Pre-emerge Herbicidal Activity CHEAL (phytotoxicity rating, scale 0-100)

smiles-entry	assay-result
CCn1c(C(F)(F)F)cc(=O)n(-c2c(F)cc(Cl)c(OC)c2N)c1=O	50
COc1c(Cl)cc(F)c(-n2c(=O)cc(C(F)(F)F)n(C)c2=O)c1NC(=O)c1cccc(C)c1	100
Cn1c(C(F)(F)F)cc(=O)n(-c2c(F)cc(Cl)c(OCC#N)c2N)c1=O	100
COC(=O)C=CCOc1c(Cl)cc(F)c(-n2c(=O)cc(C(F)(F)F)n(C)c2=O)c1N	100

###

tested on: green foxtail (Setaria viridis, SETVI); experiment: Pre-emerge test, greenhouse herbicide activity screening; assay type: in vivo; settings: pre-emerge, 63 g ai/ha, 14 days after application, rating scale 0-100

compound	system-under-test	phytotoxicity rating SETVI
CCOC(=O)C(Cl)Cc1c(OCC)c(Cl)cc(F)c1-n1c(=O)cc(C(F)(F)F)n(C)c1=O (centres unmarked) [14-64]	green foxtail (Setaria viridis, SETVI)	0
CCOC(=O)C(Cl)Cc1cc(Cl)cc(F)c1-n1nc(C)n(C(F)F)c1=O (centres unmarked) [14-52]	green foxtail (Setaria viridis, SETVI)	0
COc1c(Cl)cc(F)c(-n2c(=O)cc(C(F)(F)F)n(C)c2=O)c1NNC(=O)c1ccc(F)cc1F [15-4]	green foxtail (Setaria viridis, SETVI)	100
COc1c(Cl)cc(F)c(-n2c(=O)cc(C(F)(F)F)n(C)c2=O)c1NNC(=O)c1ccccc1 [15-3]	green foxtail (Setaria viridis, SETVI)	100
COc1c(Cl)cc(F)c(-n2c(=O)cc(C(F)(F)F)n(C)c2=O)c1CC(C)(Cl)C(=O)OCC1CCCO1 (centres unmarked) [14-49]	green foxtail (Setaria viridis, SETVI)	50
COc1c(Cl)cc(F)c(-n2c(=O)cc(C(F)(F)F)n(C)c2=O)c1OC(=O)c1ccc2ccccc2c1 [Compound 16-7]	green foxtail (Setaria viridis, SETVI)	0
COc1c(Cl)cc(F)c(-n2c(=O)cc(C(F)(F)F)n(C)c2=O)c1NN=CCc1ccccc1 [15-15]	green foxtail (Setaria viridis, SETVI)	100
COc1c(Cl)cc(F)c(-n2c(=O)cc(C(F)(F)F)n(C)c2=O)c1NN=CCCSC [15-14]	green foxtail (Setaria viridis, SETVI)	100
COc1c(Cl)cc(F)c(-n2c(=O)cc(C(F)(F)F)n(C)c2=O)c1NN=CC(C)c1ccccc1 (centres unmarked) [15-17]	green foxtail (Setaria viridis, SETVI)	100
COc1c(Cl)cc(F)c(-n2c(=O)cc(C(F)(F)F)n(C)c2=O)c1NN=C(C)C [15-12]	green foxtail (Setaria viridis, SETVI)	100
COc1c(Cl)cc(F)c(-n2c(=O)cc(C(F)(F)F)n(C)c2=O)c1NN=CC1CC1 [Compound 15-11]	green foxtail (Setaria viridis, SETVI)	100
COc1c(Cl)cc(F)c(-n2c(=O)cc(C(F)(F)F)n(C)c2=O)c1NNC(=O)Nc1ccc(F)cc1F [15-8]	green foxtail (Setaria viridis, SETVI)	20
CCOC(=O)C(Cl)(C#N)Cc1c(OC)c(Cl)cc(F)c1-n1c(=O)cc(C(F)(F)F)n(C)c1=O (centres unmarked) [14-51]	green foxtail (Setaria viridis, SETVI)	0
Cn1c(C(F)(F)F)cc(=O)n(-c2ccc(Cl)cc2C(=O)c2ccccc2)c1=O [14-57]	green foxtail (Setaria viridis, SETVI)	0
Cn1c(C(F)(F)F)cc(=O)n(-c2ccc(Cl)cc2/C=C/c2ccc3ccccc3c2)c1=O [14-59]	green foxtail (Setaria viridis, SETVI)	0
CCOC(=O)C(Cl)Cc1cc(Cl)cc(F)c1-n1c(=O)cc(C(F)(F)F)n(C)c1=O (centres unmarked) [14-60]	green foxtail (Setaria viridis, SETVI)	10
COc1c(Cl)cc(F)c(-n2c(=O)cc(C(F)(F)F)n(C)c2=O)c1O [Compound 16-6]	green foxtail (Setaria viridis, SETVI)	0

###

system: upland rice (Oryza sp., var. Tebonnet, RICE); assay: Pre-emerge test, crop safety; type: in vivo; details: 250 g ai/ha; rated 14 days after application; 0 = no damage, 100 = complete death
readout-kind: Pre-emerge phytotoxicity rating (0-100), crop damage, RICE

compound	assay-result
COc1c(Cl)cc(F)c(-n2c(=O)cc(C(F)(F)F)n(C)c2=O)c1NC(=O)c1cccc(Cl)c1 [2-54]	90
COc1c(Cl)cc(F)c(-n2c(=O)cc(C(F)(F)F)n(C)c2=O)c1NC(=O)c1ccc(Cl)cc1 [2-56]	95
COc1c(Cl)cc(F)c(-n2c(=O)cc(C(F)(F)F)n(C)c2=O)c1NC(=O)C=Cc1ccco1 [2-92]	10
COc1c(Cl)cc(F)c(-n2c(=O)cc(C(F)(F)F)n(C)c2=O)c1NC(=O)C=Cc1ccccc1Cl [2-82]	10
COc1c(Cl)cc(F)c(-n2c(=O)cc(C(F)(F)F)n(C)c2=O)c1NC(=O)COC(C)=O [2-117]	90
COc1c(Cl)cc(F)c(-n2c(=O)cc(C(F)(F)F)n(C)c2=O)c1NC(=O)c1cccc(F)c1F [2-41]	90
COc1c(Cl)cc(F)c(-n2c(=O)cc(C(F)(F)F)n(C)c2=O)c1NC(=O)c1ccc(Br)cc1 [2-61]	95
CCOC(=O)C(=O)Nc1c(OC)c(Cl)cc(F)c1-n1c(=O)cc(C(F)(F)F)n(C)c1=O [2-118]	30
COc1c(Cl)cc(F)c(-n2c(=O)cc(C(F)(F)F)n(C)c2=O)c1NC(=O)c1ccc(C#N)cc1 [2-67]	90
COc1c(Cl)cc(F)c(-n2c(=O)cc(C(F)(F)F)n(C)c2=O)c1NC(=O)c1cc(F)cc(F)c1 [2-50]	90
Cn1c(C(F)(F)F)cc(=O)n(-c2c(F)cc(Cl)c(O)c2NC(=O)c2ncccn2)c1=O [2-102]	0
COc1c(Cl)cc(F)c(-n2c(=O)cc(C(F)(F)F)n(C)c2=O)c1NC(=O)c1ccc2ccccc2c1 [2-75]	80
COc1c(Cl)cc(F)c(-n2c(=O)cc(C(F)(F)F)n(C)c2=O)c1NC(=O)c1ccc(CCl)cc1 [2-36]	40
COc1c(Cl)cc(F)c(-n2c(=O)cc(C(F)(F)F)n(N)c2=O)c1NC(=O)c1ccc2ccccc2c1 [2-77]	20
COc1c(Cl)cc(F)c(-n2c(=O)cc(C(F)(F)F)n(C)c2=O)c1NC(=O)c1ccc(-c2ccccc2)cc1 [2-37]	0
COc1c(Cl)cc(F)c(-n2c(=O)cc(C(F)(F)F)n(C)c2=O)c1NC(=O)c1cnc2ccccc2n1 [2-105]	70

###

tested on: ivyleaf morningglory (Ipomoea hederacea, IPOHE); test: Pre-emerge test, greenhouse herbicide activity screening; type: in vivo; conditions: 63 g ai/ha; rated 14 days after application; 0 = no damage, 100 = complete death
readout-kind: Pre-emerge Herbicidal Activity, phytotoxicity rating (0-100), IPOHE

smiles-entry	assay-result
COc1c(Cl)cc(F)c(-n2c(=O)cc(C(F)(F)F)n(C)c2=O)c1N(C(=O)c1ccc(Cl)nc1)C(=O)c1ccc(Cl)nc1	100
COc1c(Cl)cc(F)c(-n2c(=O)cc(C(F)(F)F)n(C)c2=O)c1NC(=O)c1cnc2ccccc2n1	20
COc1c(Cl)cc(F)c(-n2c(=O)cc(C(F)(F)F)n(C)c2=O)c1NC(=O)CCc1ccccc1	90
COc1c(Cl)cc(F)c(-n2c(=O)cc(C(F)(F)F)n(C)c2=O)c1NC(=O)C=Cc1ccccc1	20
COc1c(Cl)cc(F)c(-n2c(=O)cc(C(F)(F)F)n(C)c2=O)c1NC(=O)COc1ccccc1	70
COc1c(Cl)cc(F)c(-n2c(=O)cc(C(F)(F)F)n(C)c2=O)c1NC(=O)c1cc(F)cc(F)c1	70
COc1c(Cl)cc(F)c(-n2c(=O)cc(C(F)(F)F)n(C)c2=O)c1NC(=O)c1cccc(F)c1F	90
COc1c(Cl)cc(F)c(-n2c(=O)cc(C(F)(F)F)n(C)c2=O)c1NC(=O)c1ccc(I)cc1	40
